Recorded values, source patent US20090170812A1.

Target: LcrF (VirF) (Yersinia pestis)
Sequence (P28808 whole entry, looked up): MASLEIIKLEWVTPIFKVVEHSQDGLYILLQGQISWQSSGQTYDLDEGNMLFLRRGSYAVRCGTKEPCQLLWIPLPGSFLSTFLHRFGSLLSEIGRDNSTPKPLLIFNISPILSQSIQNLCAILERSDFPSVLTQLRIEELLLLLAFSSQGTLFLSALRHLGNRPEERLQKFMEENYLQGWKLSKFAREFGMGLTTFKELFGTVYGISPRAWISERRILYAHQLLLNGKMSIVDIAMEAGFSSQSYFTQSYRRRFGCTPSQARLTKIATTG
Assay: biochemical

| COMPOUND SMILES | EC50 |
| --- | --- |
| CCc1cc(-c2nc3ccc([N+](=O)[O-])cc3n2O)ccc1NC(=O)/C=C/c1ccc(C)cc1 | < 10 µM |
| O=C(/C=C/c1ccc(F)cc1)Nc1ccc(-c2nc3ccc([N+](=O)[O-])cc3n2O)nc1 | 10.1 to 25 µM |
| Cc1cc2nc(-c3ccc(NC(=O)c4ccc(-c5cnco5)cc4)cc3)n(O)c2cc1[N+](=O)[O-] | > 25.1 µM |
| CCc1cc(-c2nc3ccc([N+](=O)[O-])cc3n2O)ccc1NC(=O)c1ccc(F)cc1 | 10.1 to 25 µM |
| O=C(Nc1ccc(-c2nc3ccc([N+](=O)[O-])cc3n2O)cc1)c1ccc2c(c1)CCCC2=O | > 25.1 µM |
| O=C(O)COn1c(-c2ccc(NC(=O)c3ccc(F)cc3)cc2)nc2ccc([N+](=O)[O-])cc21 | > 25.1 µM |
| COc1cc(NC(=O)/C=C/c2ccc(F)cc2)ccc1-c1nc2ccc([N+](=O)[O-])cc2n1O | 10.1 to 25 µM |
| O=C(Nc1ccc(-c2nc3ccc([N+](=O)[O-])cc3n2O)cc1)C1=Cc2ccccc2OC1 | 10.1 to 25 µM |
| O=C(/C=C/c1ccc(-n2cncn2)cc1)Nc1ccc(-c2nc3ccc([N+](=O)[O-])cc3n2O)cc1 | > 25.1 µM |
| O=C(/C=C/c1ccc(F)cc1)Nc1ccc(-c2nc3cc(F)c([N+](=O)[O-])cc3n2O)cc1 | > 25.1 µM |
| O=C(Nc1ccc(-c2nc3ccc([N+](=O)[O-])cc3n2O)cc1)/C(=C/c1ccccc1)c1ccccc1 | < 10 µM |
| CN(C)c1cc2nc(-c3ccc(NC(=O)/C=C/c4ccc(F)cc4)cc3)n(O)c2cc1[N+](=O)[O-] | > 25.1 µM |
| CC(=O)c1ccc(C(=O)Nc2ccc(-c3nc4ccc(C#N)cc4n3O)cc2)cc1 | > 25.1 µM |
| CCOP(=O)(COn1c(-c2ccc(NC(=O)/C=C/c3ccc(F)cc3)cc2)nc2ccc([N+](=O)[O-])cc21)OCC | > 25.1 µM |
| O=C(/C=C/c1ccc(F)cc1)Nc1ccc(-c2nc3ncc([N+](=O)[O-])cc3n2O)c(F)c1 | < 10 µM |
| N#Cc1ccc2nc(-c3ccc(NC(=O)c4ccc(F)cc4)cc3)n(O)c2c1 | > 25.1 µM |
| CC(C)c1ccc(/C=C/C(=O)Nc2ccc(-c3nc4ccc([N+](=O)[O-])cc4n3O)cc2)cc1 | > 25.1 µM |
| O=C(Nc1ccc(-c2nc3ccc([N+](=O)[O-])cc3n2O)cc1)c1ccc(-c2cncnc2)cc1 | > 25.1 µM |
| O=C(C/C=C/c1ccccc1)Nc1ccc(-c2nc3ccc([N+](=O)[O-])cc3n2O)cc1 | > 25.1 µM |
| O=C(/C=C/c1ccc(F)cc1)Nc1ccc(-c2nc3ccc(-n4ccnc4)cc3n2O)cc1 | > 25.1 µM |
| N#Cc1ccc2nc(-c3ccc(NC(=O)c4ccc(-n5ccnc5)cc4)cc3)n(O)c2c1 | 10.1 to 25 µM |
| O=C(Nc1ccc(-c2nc3ccc([N+](=O)[O-])cc3n2O)cc1)c1ccc(F)c(F)c1 | 10.1 to 25 µM |
| O=C(/C=C/c1ccc(F)cc1)Nc1ccc(-c2nc3ccc([N+](=O)[O-])cc3n2O)cc1F | 10.1 to 25 µM |
| CCc1cc(-c2nc3ccc([N+](=O)[O-])cc3n2O)ccc1NC(=O)c1ccc(C(C)=O)cc1 | 10.1 to 25 µM |
| CC(=O)c1ccc(C(=O)Nc2ccc(-c3nc4ccc([N+](=O)[O-])cc4n3O)nc2)cc1 | > 25.1 µM |
| O=C(/C=C/c1ccc(F)cc1F)Nc1ccc(-c2nc3ccc([N+](=O)[O-])cc3n2O)nc1 | < 10 µM |
| CC(=O)c1ccc(C(=O)Nc2ccc(-c3nc4cc(C)c([N+](=O)[O-])cc4n3O)cc2)cc1 | < 10 µM |
| O=C(/C=C/c1ccc(F)cc1)Nc1ccc(-c2nc3ccc([N+](=O)[O-])cc3n2O)c(F)c1 | < 10 µM |
| COc1cc(NC(=O)c2ccc(F)cc2)ccc1-c1nc2ccc([N+](=O)[O-])cc2n1O | > 25.1 µM |
| CC(=O)c1ccc(C(=O)Nc2ccc(-c3nc4ccc([N+](=O)[O-])cc4n3O)cc2F)cc1 | 10.1 to 25 µM |
| O=C(/C=C/c1ccc(F)cc1F)Nc1ccc(-c2nc3ccc([N+](=O)[O-])cc3n2O)cn1 | < 10 µM |
| COc1cc(C(=O)Nc2ccc(-c3nc4ccc([N+](=O)[O-])cc4n3O)cc2)ccc1F | 10.1 to 25 µM |
